Numbers sourced from patent US20120316071A1.

Assign ECL signal to each entry below.
- target system: T1, rHuman CD44/Fc Chimera, CF (R&D Systems Cat#3660-CD) (human, UniProt P16070 21-220)
- T1 construct: Bought recombinant protein; Fc part of the bought chimera not given
- protocol notes: ECL multispot (MSD) binding assay, antigen spotted on plate, Fab 0.04 uM;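 note: purified Fab incubated 1 h at 20 °C on antigen spots, detected via TAG-labelled antibody, ECL read against each well's blank, with signal-to-blank of at least 4 scored as binder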
// response body must contain only the number

Ask | Report ECL signal, nothing else, for this binder: Fab VH5-51_IGHD5-18*01>3_IGHJ4*01 G100K/G104T (H:KT) & V3-4_IGLJ1*01 Y93A (Fab, V domains shown, Fab; Expressed from Plasmid A (CH1, His6 and Flag tags) and Plasmid E (lambda CL); also called KT & Y93A) VH: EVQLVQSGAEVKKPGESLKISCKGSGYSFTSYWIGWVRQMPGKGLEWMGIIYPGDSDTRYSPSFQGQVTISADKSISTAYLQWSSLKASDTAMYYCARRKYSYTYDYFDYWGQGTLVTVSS VL: QTVVTQEPSFSVSPGGTVTLTCGLSSGSVSTSYYPSWYQQTPGQAPRTLIYSTNTRSSGVPDRFSGSILGNKAALTITGAQADDESDYYCVLAMGSGISYVFGTGTKVTVL
Reply | 700

Ask | Report ECL signal, nothing else, for this binder: Fab VH5-51_IGHD5-18*01>3_IGHJ4*01 G100K/G104T (H:KT) & V3-4_IGLJ1*01 V91A (Fab, V domains shown, Fab; Expressed from Plasmid A (CH1, His6 and Flag tags) and Plasmid E (lambda CL); also called KT & V91A) VH: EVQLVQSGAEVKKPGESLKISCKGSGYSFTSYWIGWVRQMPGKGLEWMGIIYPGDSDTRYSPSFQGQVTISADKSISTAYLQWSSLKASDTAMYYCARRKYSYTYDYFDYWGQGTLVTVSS VL: QTVVTQEPSFSVSPGGTVTLTCGLSSGSVSTSYYPSWYQQTPGQAPRTLIYSTNTRSSGVPDRFSGSILGNKAALTITGAQADDESDYYCALYMGSGISYVFGTGTKVTVL
Reply | 632

Ask | Report ECL signal, nothing else, for this binder: Fab VH5-51_IGHD5-18*01>3_IGHJ4*01 G100K/G104T (H:KT) & V3-4_IGLJ1*01 S99A (Fab, V domains shown, Fab; Expressed from Plasmid A (CH1, His6 and Flag tags) and Plasmid E (lambda CL); also called KT & S99A) VH: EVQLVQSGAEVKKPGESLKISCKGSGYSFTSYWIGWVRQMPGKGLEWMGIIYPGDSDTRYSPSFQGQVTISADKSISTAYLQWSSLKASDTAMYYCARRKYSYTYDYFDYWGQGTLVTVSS VL: QTVVTQEPSFSVSPGGTVTLTCGLSSGSVSTSYYPSWYQQTPGQAPRTLIYSTNTRSSGVPDRFSGSILGNKAALTITGAQADDESDYYCVLYMGSGIAYVFGTGTKVTVL
Reply | 670
